experiment: logP by HPLC on reversed-phase column (C 18), EEC Directive 79/831 Annex V.A8; type: physicochemical; settings: HPLC reversed-phase C 18; 40° C.; 0.1% aqueous formic acid and acetonitrile, linear gradient 10% to 90% acetonitrile
List of log p (HCOOH) values.
MEASURED_PROPERTY: log p (HCOOH)

> print(dat)
                              smiles.string  recorded.number
1  Cc1cc(-c2ccc(C(C)(C)C)cc2)c(C)cc1N=CN1CCCCC1             2.69
2  CCN(C)C=Nc1ccc(-c2ccc(Oc3ccccc3)cc2)cc1F             2.20
3  COc1cc(-c2ccc(C)cc2)c(OC)cc1N=CN(C)C(C)C             2.01
4   CCN(C)C=Nc1cc(C)c(-c2ccc(C=NOC)cc2)cc1C             2.05
5  CCN(C)C=Nc1ccc(-c2ccc(F)c(Cl)c2)cc1C(F)(F)F             2.36

---

experiment: logP by HPLC on reversed-phase column (C 18), EEC Directive 79/831 Annex V.A8; type: physicochemical; details: reversed-phase HPLC column (C 18); pH 2.3; HPLC, 0.1% aqueous formic acid and acetonitrile, 40° C.; read-out: log P (pH 2.3)
List of chromatographic logP values.
MEASURED_PROPERTY: chromatographic logP

> print(dat)
                                   molecule  result
1  Cc1cc(-c2ccc(C(C)(C)C)cc2)c(C)cc1N=C1CCCCN1 [Compound 121]     2.6
2  CCN(C)/C=N/c1cc(C)c(Br)cc1C [Intermediate (Va-1)]    1.36
3  Cc1cc(-c2ccc(C(C)(C)C)cc2)c(C)cc1N [Intermediate (VII-1)]    3.65
4  CCN(C)/C=N/c1cc(C)c(-c2ccc(C(C)(C)C)cc2)cc1C [Compound 8]    2.67

---

assay: logP by HPLC on reversed-phase column (C 18), EEC Directive 79/831 Annex V.A8; type: physicochemical; conditions: HPLC reversed-phase C 18; 40° C.; 0.1% aqueous formic acid and acetonitrile, linear gradient 10% to 90% acetonitrile
List of log p (HCOOH) values.
MEASURED_PROPERTY: log p (HCOOH)

> print(dat)
                                    compound  measured.property  recorded.number
 1  Cc1cc(-c2ccc(C(C)(C)C)cc2)c(C)cc1N=CN1CCCCC1C (stereo not shown)      log p (HCOOH)             3.02
 2     CCN(C)C=Nc1ccc(-c2ccc(Cl)c(C)c2)cc1Cl      log p (HCOOH)             2.13
 3         CCN(C)C=Nc1ccc(-c2ccc(F)cc2)cc1Cl      log p (HCOOH)             1.69
 4     CCN(C)C=Nc1ccc(-c2ccc(F)c(Cl)c2)cc1Cl      log p (HCOOH)             1.92
 5       CCN(C)C=Nc1ccc(-c2ccc(Cl)cc2C)cc1Cl      log p (HCOOH)             2.03
 6    CCN(C)C=Nc1cc(C)c(-c2ccc(F)c(F)c2)cc1C      log p (HCOOH)             1.98
 7  CCN(C)C=Nc1ccc(-c2ccc(OCc3ccccc3)cc2)cc1F      log p (HCOOH)             2.27
 8  C=CCN(C)C=Nc1cc(C)c(-c2ccc(C(C)=NOCC)cc2)cc1C      log p (HCOOH)             2.60
 9  CCCN(C)C=Nc1cc(C)c(-c2ccc(C)c(Cl)c2)cc1C      log p (HCOOH)             2.56
10  CCN(C)C=Nc1ccc(-c2ccc(OC(F)(F)F)cc2)c(Cl)c1      log p (HCOOH)             2.15
11  CCN(C)C=Nc1cc(C)c(-c2ccc(OC(C)(C)C)cc2)cc1C      log p (HCOOH)             2.28
12      CCN(C)C=Nc1ccc(-c2ccc(Cl)cc2Cl)cc1Cl      log p (HCOOH)             2.32
13  CCN(C)C=Nc1ccc(-c2ccc(OC)c(OC)c2OC)cc1C(F)(F)F      log p (HCOOH)             1.84
14    CCN(C)C=Nc1ccc(-c2ccc(Cl)c(Cl)c2)cc1Cl      log p (HCOOH)             2.25
15  CCN(C)C=Nc1ccc(-c2ccc(F)c(F)c2)cc1C(F)(F)F      log p (HCOOH)             2.09
16  CCN(C)C=Nc1ccc(-c2ccc(Oc3ccccc3)cc2)cc1C(F)(F)F      log p (HCOOH)             2.65
17      Cc1cc(-c2ccc(F)cc2)c(C)cc1N=C1NCCCN1      log p (HCOOH)             1.81
18  CCN(C)C=Nc1cc(C)c(-c2cc(OC)c(OC)c(OC)c2)cc1C      log p (HCOOH)             1.68
19  CCN(C)C=Nc1cc(C)c(-c2ccc(CC(C)C)cc2)cc1C      log p (HCOOH)             2.84
